- Species: Homo sapiens
- experiment: Inhibition of LTB4 biosynthesis at 1 uM, in calcium ionophore-stimulated human whole blood leukocyte (HBL) assay.
- Assay type: functional
measurement.kind: inhibition at 1 µM (%)
Express your answer in %, writing the number without its unit.

entry.smiles | result.units | inhibition at 1 µM
Cc1ccc(-c2nc(CCOc3ccc(CN(O)C(N)=O)cc3)c(C)o2)cc1 | % | 40
Cc1oc(-c2ccccc2)nc1CCOc1cccc(CN(O)C(N)=O)c1 | % | 51
NC(=O)N(O)Cc1ccc(OCc2csc(-c3ccccc3)n2)cc1 | % | 44

# evaluate next
So what's the measured inhibition at 1 µM for this one? NC(=O)N(O)Cc1ccc(OCCc2csc(-c3ccccc3)n2)cc1
19
